system: Jurkat; assay: Cell viability CellTiter-Blue assay, Jurkat (Bcl-2-negative); type: cell-based, human; conditions: Homo sapiens, Jurkat; growth inhibition, Bcl-2-negative cell line, CellTiter-Blue, 24 h; mean ± SEM
Here, each record is paired with measured IC50 data.

COc1ccc(-c2nn3c(-c4c[nH]c5ccccc45)nnc3s2)c(OC)c1 [Compound 5k]	> 100 µM

Note to self: IC50 recorded for Cc1ccc(-c2nn3c(-c4c[nH]c5ccccc45)nnc3s2)cc1 [Compound 5c] was > 100 µM

Form: compound = FC(F)(F)c1ccc(-c2nn3c(-c4c[nH]c5ccccc45)nnc3s2)cc1 [Compound 5i] ; IC50 = > 100 µM

Entry O=[N+]([O-])c1ccc(-c2nn3c(-c4c[nH]c5ccccc45)nnc3s2)cc1 [Compound 5h] — recorded IC50 = 58.1 µM

Measured IC50, Sc1nn2c(-c3c[nH]c4ccccc34)nnc2s1 [Compound 4] : 10.3 µM

Briefly, IC50 measured for COc1cc(OC)cc(-c2nn3c(-c4c[nH]c5ccccc45)nnc3s2)c1 [Compound 5l] : > 100 µM
